# subject_of_test: HiBit-KRAS^G12C (Homo sapiens, UniProt P01116, G12C)
# Sequence (P01116 1-186 isoform P01116-2 G12C limits assumed): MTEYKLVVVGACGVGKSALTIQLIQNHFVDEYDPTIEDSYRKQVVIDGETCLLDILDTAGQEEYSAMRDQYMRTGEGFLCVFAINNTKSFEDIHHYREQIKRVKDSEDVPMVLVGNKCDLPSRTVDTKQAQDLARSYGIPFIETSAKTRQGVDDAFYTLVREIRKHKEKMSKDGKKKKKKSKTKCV
# assay_name: HiBit degradation assay in SW1573 HiBit-KRas^G12C cells
# Format: cell-based
# Set-up: expressed in transfected cells; host or cells: SW1573 (clone E6), modified pcDNA3.1 vector, TK promoter
# assay_conditions: SW1573, SW1573 HiBit-KRas^G12C, 0.5% DMSO, 24 hours; read-out: KRas^G12C-HiBiT (SW1573; 0.5% DMSO) Dmax**
compounds and their reported Dmax

Some entries whose results are on file:
**Q:** Please look up its Dmax: C=CC(=O)N1CCN(c2nc(OCCN3CCC(F)(COCC(=O)N[C@H](C(=O)N4C[C@H](O)C[C@H]4C(=O)N[C@@H](C)c4ccc(-c5scnc5C)cc4)C(C)(C)C)CC3)nc3c(F)c(-c4cc(O)cc5ccccc45)c(Cl)cc23)C[C@@H]1CC#N
**A:** > 70%

**Q:** Which Dmax reading was recorded for the compound C=C(F)C(=O)N1CCN(c2nc(OCCN3CCC(COCC(=O)N[C@H](C(=O)N4C[C@H](O)C[C@H]4C(=O)N[C@@H](C)c4ccc(-c5ccnn5C)cc4)C(C)(C)C)CC3)nc3c(F)c(-c4cc(O)cc5ccccc45)c(Cl)cc23)C[C@@H]1CC#N (atropisomer, axis not shown) ?
**A:** > 70%

**Q:** Return reported Dmax; argument: C=CC(=O)N1CCN(c2nc(OCCN3CCC(OCCOCC(=O)N[C@H](C(=O)N4C[C@H](O)C[C@H]4C(=O)N[C@@H](C)c4ccc(-c5scnc5C)cc4)C(C)(C)C)CC3)nc3c(F)c(-c4cc(O)cc5ccccc45)c(Cl)cc23)C[C@@H]1CC#N
**A:** > 70%

Others:
**Q:** Endpoint output: Dmax of C=CC(=O)N1CCN(c2nc(OCCN3CC[C@H](COCC(=O)N[C@H](C(=O)N4C[C@H](O)C[C@H]4C(=O)N[C@@H](C)c4ccc(-c5scnc5C)cc4)C(C)(C)C)C3)nc3c(F)c(-c4cc(O)cc5ccccc45)c(Cl)cc23)C[C@@H]1CC#N . Value?
**A:** 35 to 70%

* * *

# subject_of_test: HiBit-KRAS^G12C (Homo sapiens, UniProt P01116, G12C)
# assay_name: HiBit degradation assay in MiaPaCa-2 HiBit-KRas^G12C cells
# Assay type: cell-based
# assay_conditions: MiaPaCa-2 HiBit-KRas^G12C cells; 0.5% DMSO; 24 hours; maximum degradation
quantity_kind: KRas^G12C-HiBiT (MiaPaCa; 0.5% DMSO) DMax

**Q:** Recorded KRas^G12C-HiBiT (MiaPaCa; 0.5% DMSO) DMax of C=CC(=O)N1CCN(c2nc(OCCN3CCC(COc4cc([C@H](C(=O)N5C[C@H](O)C[C@H]5C(=O)N[C@@H](C)c5ccc(-c6scnc6C)cc5)C(C)C)on4)CC3)nc3c(F)c(-c4cc(O)cc5ccccc45)c(Cl)cc23)C[C@@H]1CC#N (atropisomer, axis not shown) [Compound 173] , please.
**A:** A (A ≥ 70)

**Q:** Tell me the measured KRas^G12C-HiBiT (MiaPaCa; 0.5% DMSO) DMax of C=CC(=O)N1CCN(c2nc(OCCN3CCC(COCC(=O)N[C@H](C(=O)N4C[C@H](O)C[C@H]4C(=O)N[C@@H](C)c4ccc(-c5scnc5C)cc4)C(C)(C)C)CC3)nc3c(F)c(-c4cc(O)cc5ccccc45)c(Cl)cc23)C[C@@H]1CC#N [Compound 17] , please.
**A:** A (A ≥ 70)

**Q:** Given the compound C=CC(=O)N1CCN(c2nc(OCCN3CCC4(CC3)CN(c3cc([C@H](C(=O)N5C[C@H](O)C[C@H]5C(=O)N[C@@H](C)c5ccc(-c6scnc6C)cc5)C(C)C)on3)C4)nc3c(F)c(-c4cc(O)cc5ccccc45)c(Cl)cc23)C[C@@H]1CC#N [Compound 139] , what is its reported KRas^G12C-HiBiT (MiaPaCa; 0.5% DMSO) DMax?
**A:** A (A ≥ 70)

* * *

# subject_of_test: HiBit-KRAS^G12C (Homo sapiens, UniProt P01116, G12C)
# assay_name: HiBit degradation assay in MiaPaCa-2 HiBit-KRas^G12C cells
# Assay type: cell-based
# assay_conditions: MIA PaCa-2, MiaPaCa-2 HiBit-KRas^G12C cells; 0.1% DMSO; 24 hours; maximum degradation; read-out: KRas^G12C-HiBiT (MiaPaCa; 0.1% DMSO) DMax
quantity_kind: Dmax

Consider the reported Dmax for these compounds:
**Q:** What value of Dmax has been reported for the following compound? C=CC(=O)N1CCN(c2nc(OCCN3CCC(OCCOCC(=O)N[C@H](C(=O)N4C[C@H](O)C[C@H]4C(=O)N[C@@H](C)c4ccc(-c5scnc5C)cc4)C(C)(C)C)CC3)nc3c(F)c(-c4cc(O)cc5ccccc45)c(Cl)cc23)CC1 [Compound 66]
**A:** < 35%

**Q:** Recorded Dmax for C=CC(=O)N1CCN(c2nc(OCCN3CCN(CCOCC(=O)N[C@H](C(=O)N4C[C@H](O)C[C@H]4C(=O)N[C@@H](C)c4ccc(-c5scnc5C)cc4)C(C)(C)C)CC3)nc3c(F)c(-c4cc(O)cc5ccccc45)c(Cl)cc23)CC1 [Compound 51] , please?
**A:** < 35%

**Q:** So what's the measured Dmax for this one? C=CC(=O)N1CCN(c2nc(O[C@H](C)CN3CC(OCC(=O)N[C@H](C(=O)N4C[C@H](O)C[C@H]4C(=O)N[C@@H](C)c4ccc(-c5scnc5C)cc4)C(C)(C)C)C3)nc3c(F)c(-c4cc(O)cc5ccccc45)c(Cl)cc23)CC1 [Compound 41]
**A:** < 35%

**Q:** What value of measured Dmax is listed for C=CC(=O)N1CCN(c2nc(OCCN3CCC(OCCOCC(=O)N[C@H](C(=O)N4C[C@H](O)C[C@H]4C(=O)N[C@@H](C)c4ccc(-c5scnc5C)cc4)C(C)(C)C)CC3)nc3c(F)c(-c4cc(O)cc5ccccc45)c(Cl)cc23)C[C@@H]1CC#N [Compound 32] ?
**A:** 35 to 70%

**Q:** Param item = C=CC(=O)N1CCN(c2nc(OCCN3CCC(COCC(=O)N[C@H](C(=O)N4C[C@H](O)C[C@H]4C(=O)N[C@@H](C)c4ccc(-c5scnc5C)cc4)C(C)(C)C)CC3)nc3c(F)c(-c4cc(O)cc5ccccc45)c(Cl)cc23)CC1 [Compound 63] ; retrieve measured Dmax.
**A:** 35 to 70%

***
**Q:** Need Dmax, item C=CC(=O)N1CCN(c2nc(OCCN3CCC(COCC(=O)N[C@H](C(=O)N4C[C@H](O)C[C@H]4C(=O)N[C@@H](C)c4ccc(-c5scnc5C)cc4)C(C)(C)C)CC3)nc3c(F)c(-c4cc(O)cc5ccccc45)c(Cl)cc23)C[C@@H]1CC#N [Compound 17]
**A:** > 70%

**Q:** Reported Dmax, compound C=C(F)C(=O)N1CCN(c2nc(O[C@H](C)CN3CCC(COCC(=O)N[C@H](C(=O)N4C[C@H](O)C[C@H]4C(=O)N[C@@H](C)c4ccc(-c5scnc5C)cc4)C(C)(C)C)CC3)nc3c2CCN(c2cc(O)cc4ccccc24)C3)C[C@@H]1CC#N [Compound 24] : ____
**A:** < 35%

* * *

# subject_of_test: HiBit-KRAS^G12C (Homo sapiens, UniProt P01116, G12C)
# assay_name: HiBit degradation assay in MiaPaCa-2 HiBit-KRas^G12C cells
# Assay type: cell-based
# assay_conditions: read-out: KRas^G12C-HiBiT (MiaPaCa; 0.5% DMSO) IC50; MiaPaCa-2 HiBit-KRas^G12C cells; 0.5% DMSO; 24 hours
quantity_kind: DC50

**Q:** Value lookup for DC50; key = C=CC(=O)N1CCN(c2nc(OCCN3CCC(COCC(=O)N[C@H](C(=O)N4C[C@@H](O)C[C@H]4C(=O)N[C@@H](C)c4ccc(-c5scnc5C)cc4)C(C)(C)C)CC3)nc3c(F)c(-c4cccc5cccc(C)c45)c(Cl)cc23)C[C@@H]1CC#N
**A:** > 1000 nM

**Q:** // DC50 lookup, key: C=CC(=O)N1CCN(c2nc(OCCN3CC[C@@H](COCC(=O)N[C@H](C(=O)N4C[C@H](O)C[C@H]4C(=O)N[C@@H](C)c4ccc(-c5scnc5C)cc4)C(C)(C)C)C3)nc3c(F)c(-c4cc(O)cc5ccccc45)c(Cl)cc23)C[C@@H]1CC#N
**A:** > 1000 nM

More entries:
**Q:** Could you tell me which DC50 is on file for C=CC(=O)N1CCN(c2nc(OCCN3CCC(COCC(=O)N[C@H](C(=O)N4C[C@H](O)C[C@H]4C(=O)N[C@@H](C)c4ccc(-c5scnc5C)cc4)C(C)(C)C)CC3)nc3c(F)c(-c4nc(N)cc(C)c4C(F)(F)F)c(Cl)cc23)C[C@@H]1CC#N ?
**A:** 100 to 1000 nM

**Q:** Consider the compound C=CC(=O)N1CCN(c2nc(OCCN3CCC(C)(COc4cc([C@@H](C(=O)N5C[C@H](O)C[C@H]5C(=O)N[C@@H](C)c5ccc(-c6scnc6C)cc5)C(C)C)on4)CC3)nc3c(F)c(-c4cc(O)cc5ccccc45)c(Cl)cc23)C[C@@H]1CC#N and give its measured DC50.
**A:** > 1000 nM

Origin of values: patent US20220370416A1
